test: Displacement of [3H]Ro15-1788 from GABA-A receptor benzodiazepine binding site in bovine cerebral cortex membranes after 1 hr
Format: cell membranes, Bos taurus, Membrane
assay.readout: Ki (nM)
Answers are plain numbers, in nM.

>  <molecule.smiles>
Cc1cnn2c1n[n+]([O-])c1ccc(Cl)cc12

>  <number>
315

$$$$
>  <molecule.smiles>
Cc1cnn2c1nnc1ccc(Cl)cc12

>  <number>
400

$$$$

Provide the reported Ki of each entry below, same order.
1. [O-][n+]1nc2c(I)cnn2c2cc(NCc3ccco3)ccc21
2. Cc1cnn2c1n[n+]([O-])c1ccc(OCc3ccnc(Cl)c3)cc12

A.
[0.23, 7.49]
